# test_target: GST tagged LXRbeta LBD (ligand binding domain) (Homo sapiens)
# Sequence (P55055 222-460 limits assumed): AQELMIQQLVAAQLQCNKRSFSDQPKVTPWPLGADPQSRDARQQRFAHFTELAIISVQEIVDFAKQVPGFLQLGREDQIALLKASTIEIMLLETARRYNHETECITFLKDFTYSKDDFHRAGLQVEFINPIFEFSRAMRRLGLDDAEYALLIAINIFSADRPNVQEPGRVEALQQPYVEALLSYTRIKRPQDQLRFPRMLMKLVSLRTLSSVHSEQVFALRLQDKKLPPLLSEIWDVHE
# protocol: LanthaScreen TR-FRET Liver X Receptor Coactivator Assay, LXR beta-LBD (co-activator recruitment; IP and % Emax relative to T0901317)
# condition_details: Inflection Point of co-activator recruitment, LXR beta-LBD, TR-FRET
pEC50: −log10 of the molar value.
measure: pEC50

COc1cccc([C@@](O)(C(=O)NC[C@H](F)CC2CCN(c3ccc(C(=O)N(C)C)c(Cl)n3)CC2)C(F)(F)F)c1 = 6.37

(P) CN(C)C(=O)c1ccc(N2CCC(CCCN(C)C(=O)[C@](N)(c3ccccc3)C(F)(F)F)CC2)nc1Cl
(Q) CN(CC[C@H]1CC12CCN(c1ccc(C(=O)NC3CC3)c(Cl)c1)CC2)C(=O)[C@](O)(c1ccccc1)C(F)(F)F
(R) CN(C)C(=O)c1ccc(N2CCC3(CC2)C[C@@H]3CCN(C)C(=O)[C@](O)(c2cccc(OC3CC3)c2)C(F)(F)F)cc1Cl
Request: Put the entries in order of pEC50, starting with the largest number. List each label, following the requested order.
Result: R, Q, P
(R: 7.49, Q: 7.09, P: 6.40)
